pEC50 values by entry
molecular target: human GPR40 (Homo sapiens (Human), UniProt O14842); test: GPR40 Calcium Flux Assay; assay type: cell-based; conditions: transfected HEK293 cells stably expressing human GPR40; Ca2+ mobilization; mean data; read-out: hGPR40 Ca^2+ Assay EC50
Sequence (O14842 whole entry): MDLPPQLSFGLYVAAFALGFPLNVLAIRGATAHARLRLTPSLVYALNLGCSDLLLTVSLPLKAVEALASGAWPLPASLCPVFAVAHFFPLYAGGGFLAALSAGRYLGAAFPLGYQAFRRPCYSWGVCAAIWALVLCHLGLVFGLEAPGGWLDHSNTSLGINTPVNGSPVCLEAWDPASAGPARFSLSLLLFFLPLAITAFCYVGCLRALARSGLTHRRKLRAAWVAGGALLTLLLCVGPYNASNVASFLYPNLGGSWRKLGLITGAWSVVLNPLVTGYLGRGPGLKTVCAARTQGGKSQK
Hey, just a heads up that pEC50 is the negative log base 10 of the concentration in molar.

1. CC#C[C@@H](CC(=O)O)c1ccc(OCc2ccc3sc(C)c(-c4ccc(OC5CCS(=O)(=O)CC5)cc4C)c3c2)cc1 :: 7.77
2. CC#C[C@@H](CC(=O)O)c1ccc(OCc2ccc3scc(-c4ccc(OCC(O)CO)cc4C)c3c2)cc1 (stereo partly drawn) :: 8.15

For the compound shown here, "CC#C[C@@H](CC(=O)O)c1ccc(COc2ccc3scc(-c4ccc(OC5CCOCC5)cc4C)c3c2)cc1" , give the reported pEC50.
7.77

For the compound shown here, "CC#C[C@@H](CC(=O)O)c1ccc(OCc2ccc3scc(-c4ccc(OCC5CCOCC5)cc4C)c3c2)nc1" , give the reported pEC50.
7.89

For the compound shown here, "CC#C[C@@H](CC(=O)O)c1ccc(OCc2ccc3scc(-c4ccccc4C(F)(F)F)c3c2)cc1" , give the reported pEC50.
8.10

For the compound shown here, CC#CC(CC(=O)O)c1ccc(OCc2ccc3scc(-c4ccc(OCCC(C)(C)O)cc4C)c3c2)nc1 (stereo not drawn) , give the reported pEC50.
7.80

For the compound shown here, "CC#C[C@@H](CC(=O)O)c1ccc(COc2ccc3scc(-c4ccc(OCCOC)cc4C)c3c2)cc1" , give the reported pEC50.
7.85

For the compound shown here, "CC#C[C@@H](CC(=O)O)c1ccc(OCc2ccc3scc(-c4cccc(OCCOC)c4C)c3c2)nc1" , give the reported pEC50.
8.10

For the compound shown here, CC#C[C@@H](CC(=O)O)c1ccc(COc2ccc3scc(-c4ccc(OC5CCOC5)cc4C)c3c2)cc1 (stereo partly drawn) , give the reported pEC50.
8.10

* * *

target: UniProt O14842; experiment: GPR40 Calcium Flux Assay; conditions: transfected HEK293 cells stably expressing human GPR40; Ca2+ mobilization; mean data; read-out: hGPR40 Ca^2+ Assay EC50
Recorded metric: EC50 (nM)
Give the value in nM but do not write nM after it.

Some entries whose results are on file:
1) CC#C[C@@H](CC(=O)O)c1ccc(OCc2ccc3scc(-c4ccc(OCC5(C)COC5)cc4C)c3c2)cc1 :: 9
2) CC#C[C@@H](CC(=O)O)c1ccc(OCc2ccc3scc(-c4cnc(OCCOC)cc4C)c3c2)cc1 :: 6

Okay, now this molecule:
For the molecule shown here, "CC#C[C@@H](CC(=O)O)c1ccc(OCc2ccc3scc(-c4cccnc4OC)c3c2)cc1" , give the reported EC50.
9
